- Test system: Malassezia globosa
- assayDetails: Activation of Malassezia globosa beta-carbonic anhydrase incubated for 15 mins prior to testing by stopped flow CO2 hydrase method
property: KA (µM)
Numbers only, in µM.

Past entries and their recorded results:
N[C@H](Cc1ccc(O)cc1)C(=O)O	25.1
N[C@@H](Cc1ccccc1)C(=O)O	34.1
N[C@H](Cc1c[nH]c2ccccc12)C(=O)O	12.5
N[C@@H](Cc1ccc(O)cc1)C(=O)O	15.7
N[C@H](Cc1c[nH]cn1)C(=O)O	18.1

I'm hoping you can list KA for every compound here, please.
1. NCCc1ccccn1
2. Nc1ccc(C[C@H](N)C(=O)O)cc1
3. N[C@@H](Cc1c[nH]c2ccccc12)C(=O)O
4. NCCN1CCOCC1
5. N[C@H](Cc1ccc(O)c(O)c1)C(=O)O

Result:
[7.3, 13.4, 10.1, 5.82, 13.7]

---

- System: Malassezia globosa
- assayDetails: Activation of Malassezia globosa beta-carbonic anhydrase incubated for 15 mins prior to testing by stopped flow CO2 hydrase method
Our labelling divides records by KA into ranges: band 1: < 6 µM; band 2: ≥ 6 µM and < 10 µM; band 3: ≥ 10 µM

# example entries with known answers
NCCc1c[nH]c2ccc(O)cc12	band 3
N[C@H](Cc1ccccc1)C(=O)O	band 3
NCCc1c[nH]cn1	band 3
N[C@@H](Cc1c[nH]cn1)C(=O)O	band 3
N[C@@H](Cc1ccc(O)c(O)c1)C(=O)O	band 2
NCCc1ccc(O)c(O)c1	band 2

Q: Hi there! Could you help me figure out the category for NCCN1CCNCC1 please?
Result: band 1

Q: Thanks! And CNC[C@H](O)c1ccc(O)c(O)c1 ?
Result: band 1

The origin of these recorded values is ChEMBL document CHEMBL3769403.
